meta.source: paper PMC5540273

test system: GRK3; construct: gene ADRBK2
MEASURED ENDPOINT: Kd

Dear colleague, please send me the reported Kd for CS(=O)(=O)CCNCc1nc(-c2ccc3ncnc(Nc4ccc(OCc5ccccc5)c(Cl)c4)c3c2)cs1.Cl [GW582764] when you can.
> 10 µM

====

tested on: GSK3B
MEASURED ENDPOINT: Kd (nM)
Unit nM implied. Number only.

Identify measured Kd obtained with GSK3B for COc1ccc(CSc2nnc(-c3ccc4nccn4c3)o2)cc1C(F)(F)F .
22

====

test system: IRAK1; details: concentration: 1 μM, replicates: in singlicate; n = 1;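 also: KINOMEscan kinase panel screen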
Form field: %Inh (one value per entry).
Could you give me the number in %? Just the number is fine.

// below: answered compounds
COMPOUND	%Inh [%]
Cn1cnc2c(N)ncnc21 [SKF-97623]	0
O=C1NC(=O)C(c2ccc(Cl)cc2)=C1Nc1cccc(Cl)c1 [SB-317651]	0
CCCCc1nn2ncccc2c1-c1ccnc(NC2CC2)n1 [GW684374]	28
CC(=O)c1c(C)c2cnc(Nc3ccn(C)n3)nc2n(C2CCCC2)c1=O	11
Fc1ccc(-c2nc[nH]c2-c2ccncc2)cc1 [SB-217360]	0

Give the reported value of %Inh for this record: COc1cccc(C2=C(Nc3cc(Cl)c(O)c(Cl)c3)C(=O)NC2=O)c1 [SB-390767]
43

Identify the reported %Inh for the following entry. O=C(Nc1n[nH]c2cc(-c3ccsc3)ccc12)C1CC1 [SB-732932]
3

In one line, give reported %Inh of the entry COC(=O)c1cccc(NC(=O)NC2CCN(c3ccnc(Nc4ccc(F)cc4)n3)C2)c1 (stereo not shown) [GSK1379725] .
0

Annotate the compound Cc1nccc(-c2c(-c3ccc(F)cc3)ncn2CCCN2CCOCC2)n1.Cl [SB-282975] with its measured %Inh.
39

Consider the compound CS(=O)(=O)CCNCc1nc(-c2ccc3ncnc(Nc4ccc5c(cnn5Cc5ccccc5)c4)c3c2)cs1.Cl.Cl [GW569716] and give its recorded %Inh.
37
